Assay: melting temperature; fluorescence melt of hairpins on a sequencing array, two-state fit, raised by 9.35 °C to match UV melts
Details: sodium 0.088 M
I'd be grateful if you could share measured Tm for these entries.
The response must be a number in °C with no trailing unit.

Field Tm (entry GTACGGCGAAAGCCCTAC (((.(((....))).))) ) reads 35.9

Field Tm (entry GATCAAGAGGTTGATC ((((((....)))))) ) reads 37.9

Field Tm (entry GATCTCATATGAGATC ((((((....)))))) ) reads 54.2

Field Tm (entry GGACACGAAAGTGCTCC ((((((....))).))) ) reads 50.1

Field Tm (entry GATCTATCCGTAGATC ((((((....)))))) ) reads 43.1

Field Tm (entry GCTGCAGGAAACTGTGGC ((..(((....)))..)) ) reads 46.5

Field Tm (entry GGGATTGGAAACAATTCC ((.((((....)))).)) ) reads 46.5

Field Tm (entry GATCGTTTACACGATC ((((((....)))))) ) reads 53.8

Field Tm (entry GGGCCCGAAAGGGATCCC ((((((....)))..))) ) reads 56.6

Field Tm (entry GTCGTAGGAAACTGCGAC ((((.((....)).)))) ) reads 53.5

Field Tm (entry GATCTCGCCAGAGATC ((((((....)))))) ) reads 69

Field Tm (entry GTCTACGGAAACGTGGAC (((.(((....))).))) ) reads 53.1

Field Tm (entry GCTTCCGAAAGGAGCAGC ((((((....)))..))) ) reads 41.7

Field Tm (entry CGTCAGCGGAAACGCACG (((..(((....)))))) ) reads 40.6

Field Tm (entry GTGCCCGAAAGGGGTCAC ((((((....)))..))) ) reads 48.6

Field Tm (entry GCTAGCGAAAGCTCAGC ((((((....))).))) ) reads 48.9

Field Tm (entry GCCATACCGAAAGGTGGC (((..(((....)))))) ) reads 53.4

Field Tm (entry GTTTCAGGAAACCGAAAC (((((.(....).))))) ) reads 37.4

Field Tm (entry GGCGGCACGAAAGTGGCC (((..(((....)))))) ) reads 52

Field Tm (entry GGGGCTGGAAACAGCCTC (.(((((....))))).) ) reads 59.8

Field Tm (entry GGCATCGAAAGATCTGCC ((((((....)))..))) ) reads 39.6

Field Tm (entry GATCAGGCAGCTGATC ((((((....)))))) ) reads 52.4

Field Tm (entry GATCGGGATTCCGATC ((((((....)))))) ) reads 57.5

Field Tm (entry GATCGTTCTAACGATC ((((((....)))))) ) reads 57.3

Field Tm (entry GGGCGTGGAAACACACCC (((.(((....))).))) ) reads 51.8

These measurements were taken from the array DNA melting data of Ke et al. (doi:10.1101/2024.01.08.574731).
